# Tested on: SEM cells
# Experiment Notes: cell viability relative to DMSO control; higher = less cytotoxic
# Stated Conditions: HPLM + 10% dialyzed FBS; 48 h; 0.00234 µM
Measured cell viability values are reported for all entries that follow.
Note: unit % is implicit; provide only the numeric part.

Solved cases below.
CCOc1ccccc1N/N=C1/C(=O)N(c2nc(-c3ccccc3)cs2)N=C1C 114
CN(C)C(=O)[C@H](O)[C@H](Cc1ccccc1)NC(=O)c1cc2cc(Cl)ccc2[nH]1 109
OC(=O)CNC(=O)\C1=C(/O)C2=CC=CC=C2N(CC3=CC=CC=C3)C1=O 104

For the compound `CCC(=O)O[C@@]1(CC[C@H]2[C@@H]3CCC/4=C/C(=O)CC[C@]4(C)[C@H]3CC[C@]12C)C(=O)CO` , what cell viability is on record?
100

====

# System: P12-Ichikawa
# Experiment Notes: cell viability relative to DMSO control; higher = less cytotoxic
# Stated Conditions: RPMI 5 mM glucose + 10% FBS; 48 h; 0.00234 µM
Readout: cell viability (%)
Note: unit % is implicit; provide only the numeric part.

Molecule	Target Of Assay	Unit Name	cell viability
CN(C)c1ccc(-c2nc3c(N4CCN(CC(=O)Nc5nccs5)CC4)c(Cl)cnc3[nH]2)cc1	P12-Ichikawa	%	114
Cc1cnc(Nc2cccc(CN3CCOCC3)c2)nc1Nc1cccc([S+](=O)([O-])NC(C)(C)C)c1	P12-Ichikawa	%	87.7
O=C(O)c1cccc(-c2noc(-c3ccccc3F)n2)c1	P12-Ichikawa	%	98.2
O=C(Nc1cccnc1)N1CCC(Cc2cccc(Oc3ccc(C(F)(F)F)cn3)c2)CC1	P12-Ichikawa	%	117

Please give the measured cell viability for this molecule: `COc1cc(N2CCN(C)CC2)ccc1Nc1nc(N)c(C(=O)c2c(Cl)cccc2Cl)s1`
117

Requested read-out: cell viability. Entry: `CN(C)CCc1c[nH]c2ccc(Cn3cncn3)cc12`
101

Which cell viability is reported for this molecule? `C[C@@H]1CC[C@@]2(CC[C@]3(C)\C(=C/C[C@@H]4[C@@]5(C)C[C@@H](O)[C@H](O)[C@@](C)(CO)[C@@H]5CC[C@@]34C)[C@@H]2[C@H]1C)C(O)=O`
123

Recorded cell viability of `C/C1=C/C(=C(/CNC(=O)C2=CC(=CC3=C2C=N[N]3C4CCCC4)C5=CC=C(CN6CCOCC6)C=C5)C(=O)N1)C` , please.
124

Give the measured cell viability of `C/C=C(\C)C(=O)N[C@@H](c1ccccc1)[C@@H](O)C(=O)O[C@H]1C[C@@]2(O)[C@@H](OC(=O)c3ccccc3)[C@@H]3[C@]4(OC(C)=O)CO[C@@H]4C[C@H](O)[C@@]3(C)C(=O)[C@H](OC(C)=O)C(=C1C)C2(C)C` .
20.9

What value of measured cell viability is listed for `CC(C)[C@H]1C(=O)N[C@H](CO)Cc2c[nH]c3cccc(c23)N1C` ?
98.8

What does the data say about its cell viability? Entry: CC(O)(C[S+](=O)([O-])c1ccc(F)cc1)C(=O)Nc1ccc(C#N)c(C(F)(F)F)c1 (stereo not drawn)
92.9

Look up cell viability for this molecule: `CCC(=O)O[C@@]1(CC[C@H]2[C@@H]3CCC/4=C/C(=O)CC[C@]4(C)[C@H]3CC[C@]12C)C(=O)CO`
122

Query (molecule): `CN1CCC(CNc2ccc3ncc(-c4cccc(OC(F)(F)F)c4)n3n2)CC1` ; field requested: cell viability
101
